tested on: L1210 cells; assay: MTT cytotoxicity assay, 72 h; assay type: cell-based, murine; conditions: Mus musculus, 72 h; L1210, p53 wt; read-out: IC50 (mean ± SE) after 72 h continuous exposure
Measurement Label: pIC50
Kindly note that pIC50 refers to -log10 of the concentration in mol/L and answer with the value alone.

Documented pIC50 of `C[C@@]12C(=O)OC(=O)[C@]1(C)[C@H]1CC[C@@H]2O1` : 4.74

---

system: HT29 cells; assay: MTT cytotoxicity assay, 72 h; type: cell-based, human; settings: Homo sapiens, HT-29, 72 h; HT29, p53 mt; read-out: IC50 (mean ± SE) after 72 h continuous exposure
Measurement Label: pIC50
In simple prose, pIC50 is minus the logarithm base ten of a concentration in moles per litre.

The recorded pIC50 for entry C[C@@]12C(=O)OC(=O)[C@]1(C)[C@H]1CC[C@@H]2O1 [Cantharidin] equals 5.19

---

test system: HCT116 cells; test: MTT cytotoxicity assay, 72 h; type: cell-based, human; settings: Homo sapiens, HCT-116, 72 h; HCT116, p53 wt; read-out: IC50 (mean ± SE) after 72 h continuous exposure
Measurement Label: pIC50
A value of pIC50 is the negative decimal logarithm of a concentration given in moles per litre.

Value of measured pIC50 for the entry `C[C@@]12C(=O)OC(=O)[C@]1(C)[C@H]1CC[C@@H]2O1` : 4.92
